Experiment: viability loss of HPDE-C7K cells – cell-based, fluorescence, HTS, primary screen (AID 431);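 note: 0% = DMSO solvent wells and 100% = doxorubicin-treated wells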
Settings: HPDE-C7K KRASV12 cells, Alamar Blue viability, 48 h; at 10 µM; active compounds read high
Hit rate of the full screen: of about 63,000 compounds, about 1,100 (1.7%) were called active. The sample as a whole holds a higher share of actives than the screen did. Results with a measured potency or affinity are listed apart.
QUANTITY: cytotoxicity (%)
Write the answer as a number in %, unit excluded.

Can you look up the measured cytotoxicity of "N#Cc1nc(-c2ccc(OCc3ccccc3)cc2)oc1NCCN1CCOCC1" for me?
12.8

Quick one: "N#Cc1nc(COc2ccc(-c3ccccc3)cc2)oc1NCCCN1CCOCC1"
50.8

What do we get for "N#Cc1nc(Cc2ccccc2)oc1NCc1cccnc1" ?
-11.2

Entry "O=C(NCc1ccco1)C1CCN(c2nnc(-n3cccc3)s2)CC1" please
-3.4

What about this compound? COc1ccc(C2C3=C(Nc4ncnn42)c2ccccc2CC3)cc1OC (stereo unspecified)
50.3

Follow-up item: "COc1ccc(-c2n[nH]c(C)c2-c2ccc(Cl)cc2)c(O)c1OC"
-14.6

----------
Assay: viability loss of HPDE-C7K cells – cell-based, fluorescence, HTS, primary screen (AID 431);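 note: 0% = DMSO solvent wells and 100% = doxorubicin-treated wells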
Conditions: HPDE-C7K KRASV12 cells, Alamar Blue viability, 48 h; at 10 µM; active compounds read high
The whole screen tested about 63,000 compounds, of which about 1,100 (1.7%) were called active. The sample as a whole holds a higher share of actives than the screen did. Measured potencies and affinities stand elsewhere.
QUANTITY: cytotoxicity (%)
I only need the number, in %, no unit after it.

Given the entry "COC(=O)Cc1cc(=O)n(-c2ccccc2)[nH]1" , report its measured cytotoxicity.
-4.1

Same for "COc1ccc(S(=O)(=O)N(C)CC(=O)NC2CCCC2)cc1Cl"
-18

Again, but for "COCCOC(=O)c1c(C)oc2ccc(NS(=O)(=O)c3ccccc3)cc12"
17.1

Try "CCOC(=O)c1c(N)sc(=S)c2c1CCC2" next.
10.6

// same read-out, input: "CCOC(=O)c1c(N)sc2c(O)c(Br)ccc12"
13.7

Another: "CSc1ccccc1NC(=O)c1ccco1"
4.6

Do the same for "O=c1oc2cc(O)ccc2c2oc3cc(O)ccc3c12" please
41

Check "COc1ccc(NS(=O)(=O)c2cc(C)ccc2NC(=O)c2cc(C)oc2C)cc1" too.
69.4

Lookup "CCCCCC(=O)N(CN1C(=O)CCC1=O)c1ccccc1"
-8.7

Would you mind doing "CCN(C(C)=O)c1nnc(CSc2nc3ccccc3s2)s1" as well?
23.5

Also "Oc1ccc2c(c1)oc1cc(O)ccc12" ?
57

Now this one: "COc1ccc(-c2nnc(-c3cccs3)o2)cc1OC"
7.2

Quick one: "CCOC(=O)CC(=O)Nc1nc2ccccc2s1"
-6.8

Query "Cc1csc2nc3ccccc3c(=O)n12" next
2.6

Moving on to "Cn1nnnc1Sc1ncnc2scc(-c3ccccc3)c12"
11.1

Same question for "CCc1c(C)sc(NC(=O)c2cccs2)c1C(=O)OC(C)C" please.
51.6

Now try "COC(=O)/C=C1\NCCSC1=O" .
35.9

Also "C/C=C/Cn1c(N(C)Cc2ccccc2)nc2c1c(=O)[nH]c(=O)n2C" ?
5.8

What about "Cc1cc(O)c(-c2cc(C(=O)Nc3ccc(S(=O)(=O)N4CCOCC4)cc3)[nH]n2)cc1C" ?
6.5

Now consider "O=c1oc2cc(O)ccc2c2c1CCCC2" and answer again.
30.5

How about "CCOC(=O)c1c(C)oc2ccc(NS(=O)(=O)c3ccc4c5c(cccc35)C(=O)N4)cc12" ?
69.9

Then "COc1ccc(NS(=O)(=O)c2cc(OC)ccc2NC(=O)c2cc(C)oc2C)cc1" ?
48.5

Query "COc1nc(Nc2cccc(C(F)(F)F)c2)nc(OC)n1" next
4.6

Item: "COc1ccc(NS(=O)(=O)c2cc(C)ccc2C)cc1"
35.3

Now the molecule CC(=O)Nc1ccc(N(C(=O)c2cnccn2)C(C(=O)NC2CCCCC2)c2ccc(O)cc2)cc1 (stereo not drawn)
-16.5

Now the molecule "Cc1cccc(Nc2nc(NCc3ccco3)nc(N3CCOCC3)n2)c1"
63.9

Next entry: "CCOC(=O)c1c(NC(=O)c2cccs2)sc(C)c1CC"
2.4

Item: CN1CCN(C(c2cccnc2)c2ccc3cccnc3c2O)CC1 (stereo not drawn)
-15.1

Next molecule up: "CCOC(=O)Cc1cc(=O)n(-c2nc3ccccc3s2)[nH]1"
79.8

Same again, this time with "CCO/C=N/c1c(C#N)c(CC#N)nn1-c1ccccc1"
-4.3

Another molecule to look at: "Cc1ccc(S(=O)(=O)CCC(=O)OCC(=O)Nc2cc(C)on2)cc1"
-22.1

Try this molecule too: COc1ccc(NC(=O)CS(=O)CC(=O)NCc2cccc(C(F)(F)F)c2)cc1 (stereo not drawn)
1

Can you check "COc1ccc(-c2nc(-c3cccs3)c(-c3cccs3)[nH]2)cc1O" next?
76.5

And what about the molecule "C=CCOc1ccccc1/C=N/O" ?
-4.8

Would you kindly repeat that for "CN1CCN(c2nc(Nc3cccc(C(F)(F)F)c3)nc(N3CCOCC3)n2)CC1" ?
52.3

Another: Cc1cccc2cc(C(c3nnnn3CC3CCCO3)N3CCCC4(CCCCC4)C3)c(=O)[nH]c12 (stereo not drawn)
-12.9

Repeat with "CCN(C(=O)CSc1nnc(Cn2nnc3ccccc32)o1)c1nc(-c2ccccc2)cs1"
-0.5

Then "O=c1[nH]cnc2scc(-c3ccc(F)cc3)c12" ?
7.7

Do the same for "CC(C)c1ccc(Nc2nc(NCc3ccco3)nc(N3CCOCC3)n2)cc1" please
35.8

Okay, and "Nc1nncn1C(=O)c1cccs1" ?
9.5

What do you get for "CCN(CC(=O)N1CCOCC1)S(=O)(=O)c1ccc(C)cc1" ?
-7.2

Same thing, different molecule: "Cc1nn2c(N3CCOCC3)c3c(nc2c1-c1ccccc1)CCCC3"
8.5

How about OCCN1CCN(C(c2cccs2)c2ccc3cccnc3c2O)CC1 (stereo not drawn) ?
83.8

Next: Cc1nc2sc(C(c3ccccc3)N3CCN(CCO)CC3)c(O)n2n1 (stereo not drawn)
-1.5

// repeat for Cc1ccc(O)c(-c2cc(C(=O)Nc3ccc(S(=O)(=O)N4CC(C)OC(C)C4)cc3)[nH]n2)c1 (stereo not drawn) and report
-13.4

Now give it for "COC(=O)Cc1cc(=O)n(-c2nc3ccccc3[nH]2)[nH]1" too.
4.2

Okay, and "COC(=O)c1ccccc1NS(=O)(=O)c1ccc2c3c(cccc13)C(=O)N2" ?
20.3

One more molecule: "CCOC(=O)c1cnc(=O)[nH]c1C"
1.1

----------
Assay: viability loss of HPDE-C7K cells – cell-based, fluorescence, HTS, primary screen (AID 431);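 note: 0% = DMSO solvent wells and 100% = doxorubicin-treated wells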
Details: HPDE-C7K KRASV12 cells, Alamar Blue viability, 48 h; at 10 µM; active compounds read high
Among all 63,000 compounds or so, about 1,100 (1.7%) were called active. For the sample, actives were picked, then their nearest neighbours and some compounds at random. Measured potencies and affinities stand elsewhere.
QUANTITY: cytotoxicity (%)
Entry rule: numbers only, all in %.

Entry "C/C=C/c1ccc(OC)c(OC(C)=O)c1" has what cytotoxicity?
1.5

Same read-out for "Cc1c(C(=O)N2CCN(C)CC2)oc2c1C(=O)CC(C)(C)C2" ?
-40.9

What about this compound? CCOC(=O)c1c(C)oc2c1c(C=NCC1CCCO1)c(O)c1ccccc12 (stereo not given)
-16.3

Item: "Cn1c(=O)c2ccccc2n(Cc2ccccc2F)c1=O"
2.5

Then this compound: "Cc1cc(NCCN2CCOCC2)n2c(nc3ccccc32)c1C#N"
11.6

How about "O=C1c2ccccc2C(=O)N1CCCc1nc2ccccc2c(=O)n1CCCn1ccnc1" ?
-31.5

Entry "CC(C)(C)NC(=O)CSc1nsc(SCC(=O)NC(C)(C)C)c1C#N" please
11.8

Field entry: "O=C(CSc1nnc(-c2ccco2)c(-c2ccco2)n1)Nc1ccccc1"
1.2

Now try "Clc1ccccc1Cn1nnc2c(Nc3ccccc3)ncnc21" .
-4.9

Can you handle "COc1cc(/C=C/C2=NC(=O)C(C)(C)O2)ccc1O" next?
32.6

Further, for "Cc1nn(-c2ccccc2)c(C)c1C(=O)OC/C(O)=C(\C#N)c1nc2ccccc2[nH]1" ?
13

And then "Cc1ccc(C#N)c(SCc2cc3c(cc2Cl)OCO3)n1" , what is it?
2.4

Same again, this time with "CN1CCN(C(=O)c2ccc3ccccc3c2)CC1"
-8.1

Again, but for CC(/C(O)=C(\C#N)c1nc2ccccc2n1C)N1C(=O)c2ccccc2C1=O (stereo not given)
0.7

And "CCOc1ccccc1N1CCN(C(=O)Nc2cccc(Cl)c2)CC1" ?
-2.1

Can you check "COCC(=O)n1nc(-c2ccccc2)nc1NCc1ccc(F)cc1" next?
-6

Query "CCOc1cc(-c2nc(-c3ccc(C)nc3OC)no2)cc(OCC)c1OCC" next
-15

Now try "CCOC(=O)c1c(C)oc2c1c(/C=N/c1ccccn1)c(O)c1ccccc12" .
4.3

Further, for "N#C/C(=C(/O)COC(=O)c1ccc2c(c1)OCCO2)c1nc2ccccc2[nH]1" ?
17.6

Repeat with "Cc1csc(NC(=O)CSc2nc(C)cs2)n1"
6.5

Let us now turn to COc1ccc(NC(=O)C2CCCN(S(=O)(=O)c3cnc[nH]3)C2)cc1 (stereo not given)
-5.3

Quick one: O=C1c2cccnc2C(O)N1Cc1ccc(F)cc1 (stereo not given)
1.3

Also, "CCOC(=O)c1c(C)[nH]c(C(=O)OC/C(O)=C(\C#N)c2nc3ccccc3[nH]2)c1C" please.
81.8

Now the compound COC(=O)C1C(=O)C2=C(CC1C)NC(=O)CC2c1ccc(O)c(OC)c1 (stereo not given)
-9.5

Can you handle O=C(O)C1C2C=CC3(CN(Cc4ccco4)C(=O)C13)O2 (stereo not given) next?
1.9

Ok, now "CCn1c(SCC(=O)NCc2ccco2)nc2c1c(=O)n(C)c(=O)n2C"
-20.9

Entry Cc1ccc(S(=O)(=O)C(C#N)c2nc3ccccc3nc2N2CCCCC2)cc1 (stereo not given) please
0.6

Same read-out for "Cc1cccc(-n2c(CCCN3C(=O)c4ccccc4C3=O)nc3ccccc3c2=O)n1" ?
-9.8

Same thing, different compound: "CNC(=O)c1ccc(N(Cc2ccccc2C)S(C)(=O)=O)cc1"
2.8

Also "Cc1ccccc1NS(=O)(=O)c1ccc2[nH]cc(C(=O)NCCCN3CCOCC3)c(=O)c2c1" , if possible.
3.9

How about "CCOC(=O)c1c(C)oc2c1c1c(c3ccccc32)OCN(Cc2cccnc2)C1" ?
29.9

Now the same for CC(OC(=O)C1CC=CCC1C(N)=O)C(Cl)=C(Cl)Cl (stereo not given)
-9.4

Request: "COc1cc(CC(=O)Oc2ccc3c(c2)OCO3)cc(OC)c1OC"
27.3

Again, but for "Cc1nc(C)c(C(=O)NCc2ccc(Cl)cc2)o1"
-5.4

Again, but for "COc1cc(CC(=O)NCc2ccc3c(c2)OCO3)cc(OC)c1OC"
-11.8

Entry "CCOC(=O)C1CCN(C(=O)c2ccc(Cl)c(Cl)c2)CC1" please
-6.5

Same lookup for "Cc1nc(NC(=O)c2csc3ccccc23)sc1C" , please.
2.8

Please do the same for "CSc1ccc(Cl)c(C(=O)OCC(=O)N2CCOCC2)c1" as well.
-13.8

Now give it for "O=C(c1ccc2ccccc2c1)N1CCN(c2ccccc2)CC1" too.
-11.6

Can you handle CCOC(=O)c1c(C)oc2c1c(C=NC1CCS(=O)(=O)C1)c(O)c1ccccc12 (stereo not given) next?
23.8

Can you handle "Cc1cc(C)nc(SCc2nnc(SCc3ccccc3Cl)o2)n1" next?
-16.5

Request: "CC1CCN(c2nnc(N3CCC(C)CC3)c3ccccc23)CC1"
-2.9

# repeat for "COc1ccc(NC(=O)CSc2nnc(-c3ccco3)n2C)cc1"
0.5

Next compound up: "CCOC(=O)c1csc(NC(=O)c2ccc(S(=O)(=O)N(C)C)cc2)n1"
5.4

Follow-up entry: "C=CCn1c(COc2ccccc2)nnc1SCC(=O)Nc1ccc(S(N)(=O)=O)cc1"
-13.8
